- assay-explanation: yeast display, Sf9 membrane polyspecificity reagent, FACS + sequencing; frameworks hold sequencing errors
quantity-name: polyreactivity (PSR sort gate)

A selection of reference data follows.
QVQLVESGGGLVQAGGSLRLSCAASGITFPYYAMGWSRQAPGKERELVAAISSSGGSTYYADSVKGRFTISRDNAKNTVYLQLNSLKPEDTAVYYCAAQRYINYDYWGQGTQVTVSS
high polyreactivity
QVQLVESGGGLVQAGGSLRLSCAASGRIFQKNAMGWYRQPPGKERELVAAISGSGSTTNYADSVKGRFTISRDNAKNTVDLQMNSLKPEDTAVFYCGTGKRGVSGRGFRYDYWGQGTQVTVSS
high polyreactivity
QVQLVESGGGLVQAGGRLRLSCAASGRTFYINTMGWYRQAPGKERELVAAISSSGDSTYYADSVKGRFTISRDNAKNTVYLQMNSLKPEDTAVYYCATDYGWYDYWGQGTQVTVSS
low polyreactivity
QVQLVESGGGLVQAGGSLRLSCAASGITFRTYAMGWYRQALGKERELVAVITWSGGRTYYADSVKGRFTISRDNANNTVYLQMHSLKPEDTAVYYCNALAYYIRYYYWGQGTQVTVSS
high polyreactivity
QVQLVESGVGLVQAGGSLRLSCAASGNIFGYYAMGWYRQAPGKERELVAAISRSGTRTYYADSVKGRFTISRDNAKNTVYLQMNSLKPEDTAVYYCNAAKSPARFQVNNFDYWGQGTQVTVSS
high polyreactivity
QVQLVESGGGLVHAGGSLRLSCAASGFIFYGNAMGWYRQAPGKERELVAAITWSSGSTYYADSVKGRFTISRYNAKNTVYLQMNSLSPEDTAVYYSNSEWSAKRPYPSRYYFNLGYWGQGTQVTESS
high polyreactivity

(Q) // query polyreactivity (PSR sort gate) value for entry QVQLVESGGGLVQAGGSLRLSCAASGYIFPPYAMGWYRQAPGKERELVATMTGIGGSTDYADSVKGRFTISRDNAKNTVYLQMNSLKPEDTAVYYCAARRDGYGTHYDYWGQGTQVTVSS
(A) low polyreactivity

(Q) Same question, QVQLVESGGGLVQAGGSLRISCAASGSTFSRNAMGWYRQAPGKERELVAAISRRGDTTYYADSVKGRFTISRDNAKNTVYLQRNSLKPEDTGVYYCAASRYGYPKYGYWGQGTQVTVSS this time
(A) high polyreactivity

(Q) Same question, QVQLVESGGGLVQAGGSLRLSCAASGSIFRYYAMGWYRQAPGKERELVATISSSGGTTYYADSVKGRFTISRDNAKNTVYLQMNSLKPEDTAVYYCAALWTWHVSYPVHEYDYWGQGTQVTVSS this time
(A) low polyreactivity

(Q) Same question, QVQLVESGGGLVQAGGSLRLSCAASGRTFSAYAMGWYRQAPGKERELVAAISRSGGSTYYADSVKGRFTISRDNAKNTVYLQMNSLKPEDTAVYYCAAKGGSGLYYWGQGTQVTVSS this time
(A) high polyreactivity

(Q) Same question, QVQLVESGGGLVQAGGSLRLSCAASGRIFGYYAMGWYIQAHGKERELVAAINSGSRTYYADSVKGRFTISRDNAKNTVYLQMNSLKPEDTAVYYCAARVRYPPYRSSDGQRGGYWGQGTQVTVSS this time
(A) high polyreactivity
